Numbers sourced from patent US20260258039A1.

target: ER (Homo sapiens, UniProt P03372); construct: T47D breast cancer cells were subcultured in cell culture medium; endogenous in cells; host or cells: T47D breast cancer cells; test: Degradation activities on ER (ELISA) in T47D breast cancer cells; format: cell-based; conditions: T47D cells, 24 h, ELISA; maximum percentage of target protein degraded; read-out: Dmax
Sequence (P03372 whole entry): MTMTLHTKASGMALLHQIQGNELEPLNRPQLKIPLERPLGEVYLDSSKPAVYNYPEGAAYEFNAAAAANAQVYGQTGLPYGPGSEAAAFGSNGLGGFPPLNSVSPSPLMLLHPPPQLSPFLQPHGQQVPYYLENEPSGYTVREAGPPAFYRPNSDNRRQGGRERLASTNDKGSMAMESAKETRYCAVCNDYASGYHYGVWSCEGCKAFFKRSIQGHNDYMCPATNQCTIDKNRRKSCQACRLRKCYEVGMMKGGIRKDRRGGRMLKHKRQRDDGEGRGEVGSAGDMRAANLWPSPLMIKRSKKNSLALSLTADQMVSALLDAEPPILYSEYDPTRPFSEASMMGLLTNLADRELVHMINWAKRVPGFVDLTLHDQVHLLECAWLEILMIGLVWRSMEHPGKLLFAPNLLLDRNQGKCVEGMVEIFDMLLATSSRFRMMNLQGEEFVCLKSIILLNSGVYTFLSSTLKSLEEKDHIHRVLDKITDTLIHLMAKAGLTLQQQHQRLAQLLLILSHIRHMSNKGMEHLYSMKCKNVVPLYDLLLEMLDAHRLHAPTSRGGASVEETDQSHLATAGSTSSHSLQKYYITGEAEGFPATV
As shown below, each of these compounds has a reported Dmax value.
readout-kind: Dmax

compound	result
O=C1CCC(N2Cc3cc(N4CC5(CCN(CC6CCN(c7ccc([C@H]8c9ccc(O)cc9OC[C@H]8c8c(F)cccc8F)cc7F)CC6)CC5)C4)ccc3C2=O)C(=O)N1 (stereo partly drawn)	< 50%
O=C1CCC(N2Cc3cc(N4CCC(N5CC6(CCN(c7ccc([C@@H]8c9ccc(O)cc9CC[C@@H]8c8ccccc8)cc7F)CC6)C5)CC4)ccc3C2=O)C(=O)N1 (stereo partly drawn)	> 75%
O=C1CCC(N2Cc3cc(N4CCC(N5CC6(CCN(c7ccc([C@H]8c9ccc(O)cc9OC[C@H]8c8ccccc8F)cc7)CC6)C5)CC4)ccc3C2=O)C(=O)N1 (stereo partly drawn)	< 50%
O=C1CCC(N2Cc3cc(N4CCC(N5CC6(CCN(c7ccc([C@H]8c9ccc(O)cc9CC[C@H]8c8ccccc8F)cc7)CC6)C5)CC4)ccc3C2=O)C(=O)N1 (stereo partly drawn)	< 50%
O=C1CCC(N2Cc3cc(N4CCC(CN5CC6(CCN(c7ccc([C@@H]8c9ccc(O)cc9CC[C@@H]8c8ccccc8)cc7)CC6)C5)CC4)ccc3C2=O)C(=O)N1 (stereo partly drawn)	50 to 75%
O=C1CC[C@@H](N2Cc3cc(N4CC5(CCN(CC6CCN(c7c(F)cc([C@@H]8c9ccc(O)cc9OC[C@@H]8c8c(F)cccc8F)cc7F)CC6)CC5)C4)ccc3C2=O)C(=O)N1	< 50%
O=C1CCC(N2Cc3cc(N4CC5(CCN(CC6CCN(c7c(F)cc([C@H]8c9ccc(O)cc9OC[C@H]8c8cccc(F)c8F)cc7F)CC6)CC5)C4)ccc3C2=O)C(=O)N1 (stereo partly drawn)	< 50%
O=C1CCC(N2Cc3cc(N4CCC(N5CC6(CCN(c7ccc([C@@H]8c9ccc(O)cc9OC[C@@H]8c8ccccc8)cc7)CC6)C5)CC4)ccc3C2=O)C(=O)N1 (stereo partly drawn)	> 75%
CC(C)C[C@H]1COc2cc(O)ccc2[C@H]1c1cc(F)c(N2CCC(CN3CCC4(CC3)CN(c3ccc5c(c3)CN(C3CCC(=O)NC3=O)C5=O)C4)CC2)c(F)c1 (stereo partly drawn)	50 to 75%
